# pKd per record follows
Molecular target: rNav1.2 sodium channels (Rattus norvegicus)
Construct: host or cells: HEK-293
Sequence (P04775 whole entry): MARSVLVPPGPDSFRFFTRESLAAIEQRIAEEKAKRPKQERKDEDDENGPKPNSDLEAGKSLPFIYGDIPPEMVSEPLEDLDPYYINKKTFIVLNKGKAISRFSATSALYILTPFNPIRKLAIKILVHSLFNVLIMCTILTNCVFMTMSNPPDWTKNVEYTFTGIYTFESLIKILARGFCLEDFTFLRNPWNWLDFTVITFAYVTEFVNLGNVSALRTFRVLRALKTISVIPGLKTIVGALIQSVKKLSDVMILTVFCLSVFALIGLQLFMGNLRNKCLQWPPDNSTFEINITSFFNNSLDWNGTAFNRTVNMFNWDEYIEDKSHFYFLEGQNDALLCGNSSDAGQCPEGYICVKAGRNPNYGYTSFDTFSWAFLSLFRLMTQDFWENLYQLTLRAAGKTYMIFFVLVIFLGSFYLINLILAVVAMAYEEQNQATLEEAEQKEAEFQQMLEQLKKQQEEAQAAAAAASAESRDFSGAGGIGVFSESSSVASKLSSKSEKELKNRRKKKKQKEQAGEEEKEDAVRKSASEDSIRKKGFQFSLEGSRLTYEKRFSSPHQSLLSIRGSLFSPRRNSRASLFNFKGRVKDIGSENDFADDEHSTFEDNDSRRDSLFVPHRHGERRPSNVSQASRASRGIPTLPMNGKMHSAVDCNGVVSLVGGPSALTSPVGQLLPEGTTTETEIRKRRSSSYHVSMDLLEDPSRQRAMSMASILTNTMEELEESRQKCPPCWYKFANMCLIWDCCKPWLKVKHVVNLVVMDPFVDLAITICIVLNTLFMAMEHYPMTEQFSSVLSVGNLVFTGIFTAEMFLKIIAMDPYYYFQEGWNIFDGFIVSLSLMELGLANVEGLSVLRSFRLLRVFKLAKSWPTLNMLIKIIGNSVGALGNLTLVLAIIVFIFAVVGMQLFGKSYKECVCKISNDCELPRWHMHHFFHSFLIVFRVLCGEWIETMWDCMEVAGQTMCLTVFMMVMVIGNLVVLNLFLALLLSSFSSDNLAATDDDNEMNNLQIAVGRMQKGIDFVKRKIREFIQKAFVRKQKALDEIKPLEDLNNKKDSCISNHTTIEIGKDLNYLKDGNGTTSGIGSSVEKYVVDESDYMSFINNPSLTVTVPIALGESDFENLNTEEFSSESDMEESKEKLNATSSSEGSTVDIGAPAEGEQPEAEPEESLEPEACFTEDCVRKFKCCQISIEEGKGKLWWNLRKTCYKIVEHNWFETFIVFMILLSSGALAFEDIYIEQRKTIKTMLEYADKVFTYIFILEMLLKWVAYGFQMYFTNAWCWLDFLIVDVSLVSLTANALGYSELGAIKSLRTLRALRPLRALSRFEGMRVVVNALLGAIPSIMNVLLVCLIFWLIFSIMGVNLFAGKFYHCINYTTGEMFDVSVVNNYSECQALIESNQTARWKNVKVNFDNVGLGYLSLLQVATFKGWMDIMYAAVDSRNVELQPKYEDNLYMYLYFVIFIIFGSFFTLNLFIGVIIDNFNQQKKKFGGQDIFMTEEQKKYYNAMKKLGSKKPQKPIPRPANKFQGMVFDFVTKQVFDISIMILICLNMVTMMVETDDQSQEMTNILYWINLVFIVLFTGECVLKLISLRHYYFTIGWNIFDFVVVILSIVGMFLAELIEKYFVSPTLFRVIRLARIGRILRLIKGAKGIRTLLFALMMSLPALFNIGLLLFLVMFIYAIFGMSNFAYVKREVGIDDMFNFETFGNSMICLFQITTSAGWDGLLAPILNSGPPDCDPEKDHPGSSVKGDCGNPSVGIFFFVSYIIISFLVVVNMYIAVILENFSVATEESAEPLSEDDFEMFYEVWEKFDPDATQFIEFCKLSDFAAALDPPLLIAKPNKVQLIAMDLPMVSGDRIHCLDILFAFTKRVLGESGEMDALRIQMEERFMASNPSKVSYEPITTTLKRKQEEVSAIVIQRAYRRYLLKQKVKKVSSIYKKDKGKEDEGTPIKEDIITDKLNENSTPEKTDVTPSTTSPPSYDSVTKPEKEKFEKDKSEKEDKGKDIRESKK
Assay: QPatch automated patch clamp, inhibition of sodium currents evoked by 5 Hz trains at three extracellular pH values
Assay type: cell-based
Settings: pH 8.6; higher concentration: lidocaine 1000 μM, memantine 100 μM; read-out: apparent affinity
Conceptually, pKd converts a concentration in mol/L into minus its log10.

molecule	pKd
CCN(CC)CC(=O)Nc1c(C)cccc1C [lidocaine]	3.17

Now take the following molecule into account.
Query string: What value of pKd has been recorded for this entry: CC12CC3CC(C)(C1)CC(N)(C3)C2 [memantine]
Result string: 4.36

Cited source: paper PMC4585259
